Target: the molecule itself
Assay: SDS-PAGE oligomerization assay with immunoblot
recorded-endpoint: stoichiometry N
Response field accepts a number only; no unit should be typed.

Quick note, stoichiometry N for L39A mutant of C41L-PLB (natural protein, dog, UniProt P61012 1-52, looked up) MDKVQYLTRSAIRRASTIEMPQQARQNLQNLFINFCLIAILLLLICIIVMLL landed at 4

Sure, the documented stoichiometry N for C41L-PLB (natural protein, dog, UniProt P61012 1-52, looked up) MDKVQYLTRSAIRRASTIEMPQQARQNLQNLFINFCLILILLLLICIIVMLL is 4

Entry under test: I48A mutant of C41L-PLB (natural protein, dog, UniProt P61012 1-52, looked up) MDKVQYLTRSAIRRASTIEMPQQARQNLQNLFINFCLILILLLLICIAVMLL . Its stoichiometry N was 5

Kindly note the recorded stoichiometry N for I38A mutant of C41L-PLB (natural protein, dog, UniProt P61012 1-52, looked up) MDKVQYLTRSAIRRASTIEMPQQARQNLQNLFINFCLALILLLLICIIVMLL , which is 4

Record L42A mutant of C41L-PLB (natural protein, dog, UniProt P61012 1-52, looked up) MDKVQYLTRSAIRRASTIEMPQQARQNLQNLFINFCLILILALLICIIVMLL . Reported stoichiometry N: 4
